Biological target: human FGFR1c + KLB receptor complex on HEK293 iLite FGF21 reporter cells (human, UniProt P11362 22-822; Q86Z14 1-1044)
Sequence (P11362 22-822, chain 1 of 2): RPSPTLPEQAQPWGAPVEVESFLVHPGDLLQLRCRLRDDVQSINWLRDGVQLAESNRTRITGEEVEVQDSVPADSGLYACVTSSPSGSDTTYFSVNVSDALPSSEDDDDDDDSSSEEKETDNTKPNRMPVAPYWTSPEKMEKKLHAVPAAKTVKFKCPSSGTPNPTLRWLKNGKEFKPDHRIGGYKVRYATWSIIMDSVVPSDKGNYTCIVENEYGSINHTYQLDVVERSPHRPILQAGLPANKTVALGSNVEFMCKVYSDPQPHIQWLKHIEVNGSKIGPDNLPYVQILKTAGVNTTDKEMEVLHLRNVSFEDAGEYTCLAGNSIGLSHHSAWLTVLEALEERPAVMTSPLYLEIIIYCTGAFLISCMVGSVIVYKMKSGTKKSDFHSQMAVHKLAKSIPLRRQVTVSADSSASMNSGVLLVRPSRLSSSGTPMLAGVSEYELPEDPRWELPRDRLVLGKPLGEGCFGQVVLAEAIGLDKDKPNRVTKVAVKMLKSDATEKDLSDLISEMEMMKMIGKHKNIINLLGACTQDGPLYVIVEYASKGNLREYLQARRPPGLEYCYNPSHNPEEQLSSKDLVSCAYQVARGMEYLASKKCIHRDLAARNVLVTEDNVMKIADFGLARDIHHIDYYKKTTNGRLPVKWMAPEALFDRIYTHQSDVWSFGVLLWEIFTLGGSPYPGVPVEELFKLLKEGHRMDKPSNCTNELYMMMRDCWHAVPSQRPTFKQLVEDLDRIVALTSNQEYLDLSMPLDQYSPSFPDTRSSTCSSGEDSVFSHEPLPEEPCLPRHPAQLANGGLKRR
Sequence (Q86Z14 whole entry, chain 2 of 2): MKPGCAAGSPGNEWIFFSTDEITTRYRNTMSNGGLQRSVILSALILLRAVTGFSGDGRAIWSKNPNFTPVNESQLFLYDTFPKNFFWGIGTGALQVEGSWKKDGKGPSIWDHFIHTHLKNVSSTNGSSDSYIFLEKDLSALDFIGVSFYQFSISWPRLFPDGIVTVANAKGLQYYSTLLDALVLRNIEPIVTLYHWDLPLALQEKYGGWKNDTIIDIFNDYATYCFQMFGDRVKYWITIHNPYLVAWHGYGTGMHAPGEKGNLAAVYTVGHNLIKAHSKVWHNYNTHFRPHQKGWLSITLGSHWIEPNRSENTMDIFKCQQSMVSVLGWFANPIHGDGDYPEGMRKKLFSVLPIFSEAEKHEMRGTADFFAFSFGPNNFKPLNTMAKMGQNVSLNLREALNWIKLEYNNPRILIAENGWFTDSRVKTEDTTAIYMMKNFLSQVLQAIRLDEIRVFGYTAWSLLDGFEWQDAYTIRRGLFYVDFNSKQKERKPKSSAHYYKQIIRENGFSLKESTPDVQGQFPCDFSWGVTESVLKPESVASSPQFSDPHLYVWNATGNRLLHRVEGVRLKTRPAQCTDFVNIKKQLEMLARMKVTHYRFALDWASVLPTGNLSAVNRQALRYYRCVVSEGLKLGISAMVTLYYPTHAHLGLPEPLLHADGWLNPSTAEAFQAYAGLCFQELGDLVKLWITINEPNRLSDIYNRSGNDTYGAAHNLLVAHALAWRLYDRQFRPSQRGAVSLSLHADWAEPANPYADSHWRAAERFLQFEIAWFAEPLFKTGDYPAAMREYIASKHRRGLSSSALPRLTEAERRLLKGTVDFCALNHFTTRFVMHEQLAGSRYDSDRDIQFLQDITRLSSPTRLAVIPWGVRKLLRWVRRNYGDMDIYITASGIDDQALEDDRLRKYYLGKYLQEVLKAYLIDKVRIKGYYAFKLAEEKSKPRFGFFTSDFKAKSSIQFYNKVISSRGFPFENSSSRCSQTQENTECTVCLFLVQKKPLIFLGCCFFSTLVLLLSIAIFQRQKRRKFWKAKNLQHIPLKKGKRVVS
Experiment: cell-based or functional assay
READOUT TYPE: EC50 (pM)
Form entry: value (pM) — number only.

Sample Ab0464 (antibody, IgG4, V domains shown) VH: QVTLKESGPVLVKPTETLTLTCTVSGFSLTYARVGVSWIRQPPGKALEWLAHIFSNDEKSYSTSLKSRLTISKDTSKSQVVLTMTNMDPVDTATYYCARSVVTGGYYYEGMDVWGQGTTVTVSS VL: SYVLTQPPSVSVAPGQTARITCGGSNIGSESVHWYQQKPGQAPVLVVYEESDRPSGIPERFSGSNSGNTATLTISRVEAGDEADYYCQVWEGESDHVVFGGGTKLTVLG ; EC50 observed: 20

Sample Ab0205 (antibody, IgG4, V domains shown, IgG4 PE) VH: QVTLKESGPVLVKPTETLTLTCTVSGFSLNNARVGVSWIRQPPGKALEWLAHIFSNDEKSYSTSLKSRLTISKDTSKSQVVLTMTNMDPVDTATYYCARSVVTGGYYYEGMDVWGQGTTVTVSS VL: SYVLTQPPSVSVAPGQTARITCGGNNIGSESVHWYQQKPGQAPVLVVYDDSDRPSGIPERFSGSNSGNTATLTISRVEAGDEADYYCQVWDGESDHVVFGGGTKLTVLG ; EC50 observed: 20

Sample Ab0340 (antibody, IgG4, V domains shown, IgG4 PE) VH: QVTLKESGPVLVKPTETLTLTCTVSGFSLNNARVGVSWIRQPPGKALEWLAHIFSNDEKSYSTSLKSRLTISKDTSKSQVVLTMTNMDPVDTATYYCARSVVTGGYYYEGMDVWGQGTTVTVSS VL: SYVLTQPPSVSVAPGQTARITCGGSNIGSESVHWYQQKPGQAPVLVVYAESDRPSGIPERFSGSNSGNTATLTISRVEAGDEADYYCQVWEGSSDHVVFGGGTKLTVLG ; EC50 observed: 50

Sample Ab0462 (antibody, IgG4, V domains shown) VH: QVTLKESGPVLVKPTETLTLTCTVSGFSLTNARVGVSWIRQPPGKALEWLAHIFSNDEKSYSTSLKSRLTISKDTSKSQVVLTMTNMDPVDTATYYCARSVVTGGYYYEGMDVWGQGTTVTVSS VL: SYVLTQPPSVSVAPGQTARITCGGSNIGSESVHWYQQKPGQAPVLVVYEESDRPSGIPERFSGSNSGNTATLTISRVEAGDEADYYCQVWEGESDHVVFGGGTKLTVLG ; EC50 observed: 30

Source of measurements: patent US20220010021A1
